# Tested on: 786-0 renal
# assay_name: NCI tumour cell line growth inhibition, 48 h; in the data active = GI50 below about 0.43 µM; inactive = the rest
Classes used: active, inactive

INSERT INTO results (compound, class_label) VALUES
  ('Nc1cccc2c1C(=O)N(C1CCC(=O)NC1=O)C2=O (stereo not given)', 'inactive'),
  ('OB([O][Hg][c]1ccccc1)[O][Hg][c]1ccccc1', 'active'),
  ('CCOC(=O)c1cnc(SCc2ccc(Cl)c(Cl)c2)nc1N1CC1', 'inactive'),
  ('CCCCCCCCCCCCc1ccc(C(=O)/C=C/C(=O)O)cc1', 'inactive'),
  ('CC(=O)[CH-]C(=O)c1ccccc1.CC(=O)[CH-]C(=O)c1ccccc1.CCN(CC)CC[O-].CCN(CC)CC[O-].Cl.[Ti+4]', 'inactive');

----------
# Test system: COLO 205 colon
# assay_name: NCI tumour cell line growth inhibition, 48 h
Entries annotated with measured TGI
measured_metric: TGI

INSERT INTO assay_data (compound, test_value) VALUES
  ('COC(=O)[C@@H]1C=C[C@@H](C#N)n2c(=O)n(-c3ccccc3)c(=O)n21', '> 100 µM'),
  ('O=C(c1ccc(Cl)cc1Cl)N(Cc1cccnc1)C(=S)N(Cc1cccnc1)C(=O)c1ccc(Cl)cc1Cl', '4.09 µM'),
  ('CCCCOC(=O)C(=O)C(CC(C(=O)Cc1ccccc1)c1ccccc1)C(=O)C=C(C)C (stereo not drawn)', '> 100 µM'),
  ('CCOC(=O)N1CCN(Cc2cc(=O)n3cc(C)ccc3n2)CC1', '> 100 µM'),
  ('COc1cc(O)c(C(=O)/C=C/c2ccccc2)c(OC)c1', '28 µM'),
  ('CSC(SC)=C1C(=O)NN=C1C', '> 100 µM'),
  ('O=c1[nH]c2cc(C(F)(F)F)ccc2nc1Cc1ccccc1', '> 100 µM'),
  ('COc1ccc(N(C)c2nc(C)nc3ccccc23)cc1', '< 0.01 µM'),
  ('CCN(CC)CCNC(=O)c1ccc([N+](=O)[O-])cc1OC', '> 100 µM'),
  ('CCOC(=O)C1C=C2O[C@@H]3OC4(CCCCC4)O[C@@H]3C2[C@H]2C(=O)C=CC(=O)[C@@]12C(=O)OC (stereo partly drawn)', '22.4 µM'),
  ('COc1ccccc1C(=O)/C=C/c1cc2cccc(OC)c2[nH]c1=O', '1.43 µM'),
  ('Nc1cccc2c1C(=O)N(C1CCC(=O)NC1=O)C2=O (stereo not drawn)', '> 100 µM'),
  ('Cc1ccc2c(c1)NC(c1ccc(C(=O)O)cc1)c1cccn1-2 (stereo not drawn)', '> 100 µM'),
  ('Cc1ccc(S(=O)(=O)NC(CCC(=O)Nc2ccc(Cl)cc2)C(=O)Nc2ccc(Cl)cc2)cc1 (stereo not drawn)', '2.15 µM'),
  ('COC1C=C(Nc2cccc(Cl)c2)C(=O)C1 (stereo not drawn)', '22.1 µM'),
  ('CCOC(=O)c1cnc(SCc2ccc(Cl)c(Cl)c2)nc1N1CC1', '13.2 µM'),
  ('CCCCN(CCCC)C(=O)C(=O)CC(=O)c1ccc(Br)cc1', '> 100 µM'),
  ('CCCCCCC(=O)C/C(CCC(=O)N(Cc1ccccc1)Cc1ccccc1)=N\Nc1ccc([N+](=O)[O-])cc1[N+](=O)[O-]', '> 100 µM'),
  ('COc1ccc(NC(=O)CC(=O)n2nc(C)c(N=Nc3ccc(C)c(C)c3)c2C)cc1', '> 100 µM'),
  ('COc1cc(-c2cc(C(=O)N3CCN(C(=O)c4ccccc4NCc4ccco4)CC3)nc3cc(-c4ccccc4)nn23)cc(OC)c1OC', '8.66 µM'),
  ('OB([O][Hg][c]1ccccc1)[O][Hg][c]1ccccc1', '1.46 µM'),
  ('CCOc1ccc(N2C(=O)C3c4[nH]c5ccccc5c4C4CCC(C(C)(C)C)CC4C3C2=O)cc1 (stereo not drawn)', '> 100 µM'),
  ('CCOc1cc(/C=N\N(C)C)cc(/C=N\N(C)C)c1O', '34.3 µM'),
  ('CC(C)Nc1[nH]c(C(=O)c2ccccc2)c(N)c1C(=S)Nc1ccccc1', '97.5 µM'),
  ('CC1(C)CC(=O)C2=C(C1)NC(SSC1=C(C#N)C(c3ccccc3)C3=C(CC(C)(C)CC3=O)N1)=C(C#N)C2c1ccccc1 (stereo not drawn)', '51.5 µg/mL'),
  ('Cc1cc(NC(=O)C2c3ccccc3C(=O)N(CC(C)C)C2c2cccs2)no1 (stereo not drawn)', '> 100 µM'),
  ('Clc1ccccc1/C=C/c1nsc(/C=C/c2ccccc2Cl)n1', '> 100 µM'),
  ('O=C(Cc1ccccc1)NN1C(=O)C(Cl)C1c1cccc(O)c1 (stereo not drawn)', '32.9 µM'),
  ('O=C1C(C(O)(C(F)(F)Cl)C(F)(F)Cl)CCC1C(O)(C(F)(F)Cl)C(F)(F)Cl (stereo not drawn)', '> 10 µM'),
  ('O=C1C2=C(c3ccccc31)C(c1ccc(Cl)cc1)N1C(=O)CCSC1=N2 (stereo not drawn)', '> 100 µM'),
  ('CNC(=O)OCc1nc(SC(C)C)n(C)c1COC(=O)NC', '> 100 µM'),
  ('NC(N)=NC(CC(=O)O)c1ccccc1 (stereo not drawn)', '> 100 µM'),
  ('CC(=O)Oc1ccc(N2C(=O)C3c4[nH]c5ccccc5c4C4CCC(C(C)(C)C)CC4C3C2=O)cc1 (stereo not drawn)', '17.5 µM');
